Tested on: transgenic HHD mice
assay text: Immunization of HHD mice with SIM2 peptides, IFN-γ ELISPOT on splenocytes
Format: in vivo, mouse
protocol conditions: male HHD mice, s.c. peptide in IFA with HBVcore128-140 helper epitope, 10-12 days; P<0.01 for SIM2(87), P<0.001 for other epitopes
Experimental: These nine SIM2 peptides were then tested for their capacity to elicit in vivo CTL responses in transgenic HHD mice. […] Spots were developed by adding […] substrates (5-bromo-4,3-indolyl phosphate and nitroblue tetrazolium) and counted using the ELRO4 AID ELISPOT Reader System (Autoimmun Diagnostika GmbH, Straf3berg, Germany).
metric: peptide-specific IFN-γ release by splenocytes (ELISPOT), immunogenicity

> print(dat)
                                  substance         assay.system              val
1  SIM2(199): SIM2 peptide able to stabilize HLA-A2.1 molecules, not immunogenic; sequence not printed (SLYDSCYQI)  transgenic HHD mice  not immunogenic
2  SIM2(25): SIM2 peptide that binds tightly to A2.1 but was not immunogenic; sequence not printed (KLLPLPSAI)  transgenic HHD mice  not immunogenic

---

assay system: HLA-A2.1 (Homo sapiens, UniProt P04439, D140Y/D185E/D98H/E176V/E277Q/G131W/G231S/I119V/I121R/I166T/I218V/L300P/L318F/N151K/N90K/P208A/P217A/Q86G/Q94H/R138H/R169H/T345S)
Construct: stabilize MHC class I molecules from the T2 cell line; endogenous in cells; host or cells: T2 cells
assay text: Peptide-HLA-A2.1 dissociation rate on T2 cells with Brefeldin A (SIM2 peptides)
Format: cell-based
protocol conditions: 50 μg/ml peptide, loss of A2.1 expression over time
metric: peptide-HLA dissociation rate (weak or strong stabilizing epitope)

Examples with answers:
substance	val
KLIFLDSRV (listed as Homo sapiens) [SIM2(241)]	strong stabilizing
YQIVGLVAV (listed as Homo sapiens) [SIM2(205)]	strong stabilizing
TLDGFVFVV (listed as Homo sapiens) [SIM2(87)]	strong stabilizing
SIM2(199): SIM2 peptide able to stabilize HLA-A2.1 molecules, not immunogenic; sequence not printed (SLYDSCYQI)	weak stabilizing
FLDSRVTEV (listed as Homo sapiens) [SIM2(244)]	strong stabilizing
epitope 430: SIM2 peptide able to stabilize HLA-A2.1 molecules, weak stabilizing epitope; sequence not printed (LLYTPSYSL)	weak stabilizing
epitope 84: SIM2 peptide able to stabilize HLA-A2.1 molecules, weak stabilizing epitope; sequence not printed (LLQTLDGFV)	weak stabilizing

Quick one: peptide-HLA dissociation rate (weak or strong stabilizing epitope) for SLDLKLIFL (listed as Homo sapiens) [SIM2(237)] ?
weak stabilizing
